biological target: Acetylcholinesterase (Electrophorus electricus, UniProt O42275)
Sequence (O42275 whole entry): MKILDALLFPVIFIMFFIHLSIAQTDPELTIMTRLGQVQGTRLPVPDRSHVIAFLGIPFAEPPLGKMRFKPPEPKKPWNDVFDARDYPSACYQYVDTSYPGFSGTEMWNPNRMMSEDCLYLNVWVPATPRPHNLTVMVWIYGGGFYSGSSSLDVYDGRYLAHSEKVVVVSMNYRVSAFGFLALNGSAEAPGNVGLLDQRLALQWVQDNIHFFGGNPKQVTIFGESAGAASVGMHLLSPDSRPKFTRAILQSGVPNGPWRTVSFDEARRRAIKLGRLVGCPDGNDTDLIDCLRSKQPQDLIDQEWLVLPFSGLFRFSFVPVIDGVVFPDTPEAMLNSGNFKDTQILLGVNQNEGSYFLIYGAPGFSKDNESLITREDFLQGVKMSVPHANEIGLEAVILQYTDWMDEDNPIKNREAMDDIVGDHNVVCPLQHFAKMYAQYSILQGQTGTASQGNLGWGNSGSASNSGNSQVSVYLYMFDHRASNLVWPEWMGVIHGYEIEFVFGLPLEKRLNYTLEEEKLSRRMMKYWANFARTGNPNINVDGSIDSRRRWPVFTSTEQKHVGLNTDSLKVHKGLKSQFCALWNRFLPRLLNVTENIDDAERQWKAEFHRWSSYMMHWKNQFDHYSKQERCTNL
RECORDED_ENDPOINT: Ki (nM)
Please state the figure in nM; there is no need to write the unit.

Can you look up Ki on Acetylcholinesterase (Electrophorus electricus, UniProt O42275) for `Cc1c(C)c2ccc(OCCCCCCN(C)Cc3ccccc3)cc2oc1=O` ? 80

====

Target: Amine oxidase [flavin-containing] A (Rattus norvegicus)
Sequence (P21396 whole entry): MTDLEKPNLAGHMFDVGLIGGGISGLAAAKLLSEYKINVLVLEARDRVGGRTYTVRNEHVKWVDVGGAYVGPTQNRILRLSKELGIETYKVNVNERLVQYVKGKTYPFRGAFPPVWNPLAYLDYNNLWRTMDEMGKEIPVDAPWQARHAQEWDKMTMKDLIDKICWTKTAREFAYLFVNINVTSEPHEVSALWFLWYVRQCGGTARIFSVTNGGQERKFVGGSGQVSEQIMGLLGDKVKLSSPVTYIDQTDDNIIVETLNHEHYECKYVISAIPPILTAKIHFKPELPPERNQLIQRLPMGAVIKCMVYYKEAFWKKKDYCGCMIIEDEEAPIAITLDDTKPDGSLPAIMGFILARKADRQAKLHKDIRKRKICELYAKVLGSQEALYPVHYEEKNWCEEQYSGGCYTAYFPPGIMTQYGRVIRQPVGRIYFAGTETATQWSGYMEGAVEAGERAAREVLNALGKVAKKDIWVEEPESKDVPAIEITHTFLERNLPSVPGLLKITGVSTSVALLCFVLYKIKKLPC
Below: a set of entries, each annotated with reported pIC50.
Lab note — pIC50 values are minus log10 of concentrations in M.

Cc1c(C)c2ccc(OCCCCCCN(C)Cc3ccccc3)cc2oc1=O
6.29

Query: pIC50; subject: `Cc1c(C)c2ccc(OCCCCCNCc3ccccc3)cc2oc1=O` 5.66

Query: pIC50; subject: `CCN(CCCCCCOc1ccc2c(C)c(C)c(=O)oc2c1)Cc1ccccc1` 5.68

Query: pIC50; subject: `Cc1c(C)c2ccc(OCCCCCN(C)Cc3ccccc3)cc2oc1=O` 5.38

Query: pIC50; subject: `Cc1c(C)c2ccc(OCCCCCN(C)Cc3cccc(C#N)c3)cc2oc1=O` 5.28

Query: pIC50; subject: `CN(C)Cc1cccc(COc2ccc3ccc(=O)oc3c2)c1` 5.00

Query: pIC50; subject: `CCN(CCCCCOc1ccc2c(C)c(C)c(=O)oc2c1)Cc1ccccc1` 5.02

Query: pIC50; subject: `CCN(CCCOc1ccc2c(C)c(C)c(=O)oc2c1)Cc1ccccc1` 5.13

Query: pIC50; subject: `Cc1c(C)c2ccc(OCCCCN(C)Cc3ccccc3)cc2oc1=O` 5.18

====

tested on: MDR1; test: Apparent permeability from basolateral to apical side in MDCK2 cells expressing MDR1 at 200 ug/ml by UV-visible spectroscopy; assay type: ADME, cell-based, Canis lupus familiaris, MDCK-II; settings: dog, MDCK-MDR1
RECORDED_ENDPOINT: Papp B→A at 200 ug/ml (×10⁻⁶ cm/s)
Please state the figure in ×10⁻⁶ cm/s; there is no need to write the unit.

Query: Papp B→A at 200 ug/ml; subject: `CN(Cc1ccccc1)Cc1ccc(COc2ccc3c(CO)cc(=O)oc3c2)cc1.Cl` 33.8

====

Below: a set of entries, each annotated with reported IC50.
biological target: UniProtKB O42275
Please state the figure in nM; there is no need to write the unit.

Cc1c(C)c2ccc(OCCCCCN(C)Cc3cccc(C#N)c3)cc2oc1=O
2300
CN(Cc1ccc(COc2ccc3ccc(=O)oc3c2)cc1)Cc1cccc(C#N)c1
7400

Can you look up IC50 on UniProtKB O42275 for `Cc1c(C)c2ccc(OCCCN(C)Cc3ccccc3)cc2oc1=O` ? 1300

Can you look up IC50 on UniProtKB O42275 for `COc1cccc(CN(C)Cc2ccc(COc3ccc4ccc(=O)oc4c3)cc2)c1` ? 4600

Can you look up IC50 on UniProtKB O42275 for `Cc1cc2ccc(OCc3ccc(CN(C)Cc4ccc(C#N)cc4)cc3)cc2oc1=O` ? 7000

Can you look up IC50 on UniProtKB O42275 for `Cc1c(C)c2ccc(OCc3ccc(CN(C)Cc4cccc(Cl)c4)cc3)cc2oc1=O` ? 660
